Tested on: OVCAR-8
method_description: NCI tumour cell line growth inhibition, 48 h
The source made the active and inactive calls. No stated cut-off is given here; in the data, active = GI50 up to about 1.1 µM and inactive = higher.
test_readout: GI50

Solved cases (6 shown):
# molecule, target, GI50
data = [
    ("Cc1ccc(C)c(/C(=N\\N=C(N)N)C2CC2)c1", "OVCAR-8", "46.6 µM (inactive)"),
    ("Nc1nc(N)c2cc(-c3cc4ccccc4[nH]3)ccc2n1", "OVCAR-8", "32.5 µM (inactive)"),
    ("CO/N=C1/C(n2[nH]c(=O)n(-c3ccccc3)c2=O)C2C=CC1n1c(=O)n(-c3ccccc3)c(=O)n12 (configuration not stated)", "OVCAR-8", "> 100 µM (inactive)"),
    ("C[C@]12CC(c3ccccc3O1)C(C(=O)NC13CC4CC(CC(C4)C1)C3)C(=O)N2 (some centres not stated)", "OVCAR-8", "26.6 µM (inactive)"),
    ("Clc1ccc(Cl)c(SCCCN2CCNCC2)c1", "OVCAR-8", "20.3 µM (inactive)"),
    ("N=c1oc2cc(O)ccc2cc1C(=O)Nc1cccc2ccccc12", "OVCAR-8", "4.78 µM (inactive)"),
]

Could you report GI50 for every entry in the following list?
1. NC1Cc2ccccc2OC1=O (configuration not stated)
2. COc1ccc(C2CC(C)(O)Oc3cc4c(cc32)OCO4)cc1 (configuration not stated)
3. O=[N+]([O-])C(=C(N1CCOCC1)N1CCOCC1)/C(Cl)=C(\Cl)Br
4. CCOC(=O)Nn1cnnc1C
5. O=C(/C=C/c1ccc(Cl)cc1)Oc1ccc(C=C2CCC/C(=C\c3ccc(OC(=O)/C=C/c4ccc(Cl)cc4)cc3)C2=O)cc1
6. CCC1CN2CCc3cc(OC)c(OC)cc3C2CC1CC1c2cc(OC)c(OC)cc2CCN1C(=O)C(Cc1c[nH]c2ccccc12)NC(=O)OC(C)(C)C (configuration not stated)

[A]
1. > 100 µM (inactive)
2. 35 µM (inactive)
3. 24.1 µM (inactive)
4. > 100 µM (inactive)
5. > 100 µM (inactive)
6. 3.27 µM (inactive)

Could you report GI50 for every entry in the following list?
1. CN(C)C(=O)N(CCCl)N=O
2. C[n+]1c2ccccc2c(NC(CCCNC(=N)N)C(=O)O)c2ccccc21 (configuration not stated)
3. O=C1c2ccccc2C(=O)c2nc3c(O)cccc3cc21

[A]
> 100 µM (inactive)
> 100 µM (inactive)
26 µM (inactive)

Could you report GI50 for every entry in the following list?
1. CC(C)Cn1cnnc1NS(=O)(=O)c1cc(C(=O)NN)c(Cl)cc1S
2. CC(Nc1cccc(Cl)c1)c1ccncc1 (configuration not stated)
3. COc1ccc(N2CN3OC(=O)N(c4ccc(OC)cc4)[C@@]3(c3ccccc3)C2)cc1
4. COc1ccc2nc3cc(Cl)ccc3c(Nc3ccc(O)c(CN4CCN(C)CC4)c3)c2c1
5. COC(=O)/C(C#N)=C1\CCC(OC)N1C (configuration not stated)
6. S=c1nc(N2CCCCC2)c2cn[nH]c2[nH]1

[A]
1: > 10 µM (inactive); 2: 88.3 µM (inactive); 3: 33.3 µM (inactive); 4: 1.79 µM (inactive); 5: > 100 µM (inactive); 6: 64.9 µM (inactive)

Could you report GI50 for every entry in the following list?
1. COc1ccc([C@H]2CC3C(=O)N(c4ccc(OC)cc4)C(=O)C3c3[nH]c4ccccc4c32)cc1 (some centres not stated)
2. CC(=O)Nc1c(S(=O)(=O)c2ccccc2)c(C)c(C)n1CCN(C)C
3. CC(=O)c1sc(Nc2nnc(-c3ccc(-c4nnc(Nc5nc(C)c(C(C)=O)s5)o4)cc3)o2)nc1C
4. C=CN(C=C)C(=O)Cn1cc(-c2ccccc2)nn1
5. CN(C)CC1CC/C(=C\c2ccc(Cl)cc2)C1=O (configuration not stated)
6. Cc1cccc(N(CCC#N)S(=O)(=O)c2ccccc2)c1
7. C[C@H]1CC[C@@H]2[C@@H](C)C[C@H]3[C@@H]4C(C)(C)OC(=O)[C@]4(C)C(=O)[C@@]23C1=O
8. N#C/C(=C/C=C/c1ccco1)C(N)=O

[A]
1: 17.1 µM (inactive); 2: > 100 µM (inactive); 3: > 100 µM (inactive); 4: > 100 µM (inactive); 5: 3.58 µM (inactive); 6: > 100 µM (inactive); 7: > 100 µM (inactive); 8: > 10 µM (inactive)

Could you report GI50 for every entry in the following list?
1. CC1(C)C=Cc2c(cc3oc4ccc5c(c4c(=O)c3c2O)C=CC(C)(C)O5)O1
2. O=S1OC2(c3ccccc3-c3ccccc32)c2ccccc21 (configuration not stated)
3. COc1c(/C=C/C=O)cc2c(c1OC)OCO2

[A]
["> 100 µM (inactive)", "> 100 µM (inactive)", "33.6 µM (inactive)"]
